Test system: MS2 coat protein
Experiment: apparent KD of MS2 coat protein; designed switch direction (-1 OFF switch, 1 ON switch): -1; higher = weaker reporter binding
Details: input ligand: none
readout-kind: apparent KD of MS2 coat protein (nM)

residue-sequence	quantitative-readout
GCACGGAGUGCAGGAUAUCUGUGCGAUUAGCUCAGAGAAGGGCACAUGAGGAUCACCCAUGUGUAUAAAACACAAAAUCCGUGC [Eli exng1 - 066] (Eterna round: R96, puzzle: Exclusion NG 1)	14.5
ACGCAUUGCCUUUGGUAGUGCGUAACAUGAGGAUCACCCAUGUAGGAUAUGGUAGGCUUUGCUUACCAGAAGGACAUAAUAAUA [Mat - Exclusion NG 3 - Mod of JL - D1] (Eterna round: R96, puzzle: Exclusion NG 3)	26.6
UUUUCGUAAGGAUAUGGUUAGAUCUACGAAAGUAGAUCUAACCAGAAGGUACAUGAGGAUCACCCAUGUUGAUA [Mod of Brourd 21 - Jieux - Exclusion 4] (Eterna round: R97, puzzle: Exclusion 4)	22.5
AACAUGGUAAAGGAUAUUGUCGCAGAAUGCGAUCAAGAAGGUUACACAUGAGGAUCACCCAUGUGGAAUCCAUC [Eternabot (Original) Solution 24] (Eterna round: R97, puzzle: Exclusion 6)	17.2
ACUUAUAGAGGAUAUACAGAAUAUUACAUGAGGAUCACCCAUGUUCUUCAAUGUAUAUAAGUAGAAGGCUAAGGAU [Mat - Exclusion 5 - JL Mod - D4] (Eterna round: R97, puzzle: Exclusion 5)	25.4
CCUCUACAUGAGGAUCACCCAUGUGAGGAUAUCAAAAUCAGGGCGGCUCCCUGACCCAUGAGAAGGUGCAUGGA [EX1 A.5] (Eterna round: R97, puzzle: Exclusion 1)	16.8
CUGUGCACGCUGCGAUCCUACAUGAGGAUCACCCAUGUGGUCUGGUGGCGUGGGUCACCGGACUUGGCUCGUCUUGG [salish99_S_TOV1_R5_078] (Eterna round: R97, puzzle: Sensor, turn-off variant 1)	150
CAAGUGUUAGGAUAUACCAGUUAAAUGCAGCUGCCGUCGGAGUAGAAGGGACAUGAGGAUCACCCAUGUCGGGA [Eternabot (L1) Solution 28] (Eterna round: R97, puzzle: Exclusion 4)	35.1
GGUUGGCGAGGAUAUACAUGAGGAUCACCCAUGUGAGAGAAAAAAGUGAGAACGAAAAGUAGAAGGCGCUGACG [salish99-ex3-25] (Eterna round: R96, puzzle: Exclusion 3)	98.8
GUCAGGAAUGUAGGAUAUCUGCACGUGUAGUGCAGAGAAGGACAUGAGGAUCACCCAUGUAUAGUAGCUUCGGCUACACCUGAC [ENG1-A3] (Eterna round: R96, puzzle: Exclusion NG 1)	18.1
UGAUUGUUUAACAGAUUAUACAUGAGGAUCACCCAUGUAGGUCCUACGUGCACAUUAUGCAGCUCGUCUUAUUCCCA [Sensor-V1 #72] (Eterna round: R97, puzzle: Sensor, turn-off variant 1)	37.3
AGCAAGUUAAGGUUGAUGCACAUGAGGAUCACCCAUGUUCGUCUUACAUGGAAAGUGGACGCGUUUAUGGAAAGGAG [Eternabot (L2) Solution 36] (Eterna round: R97, puzzle: Sensor, turn-off variant 1)	28.2
CAGUACUGAGGAUAUACAUGAGGAUCACCCAUGUGUGUGAGAAUUGUAUGAAUGUUAUGUAGAAGGCGGUGCUG [JR_Ex3_Sub033] (Eterna round: R97, puzzle: Exclusion 3)	765
AUAUUAAUAGUAAGGAUAUGCGUGUGUGUAGUUAUGCAGAAGGUACAUGAGGAUCACCCAUGUAUUAAUGUGUG [LRO-BmodExc4-08-Oppy's Opus] (Eterna round: R97, puzzle: Brourd's mod of Exclusion 4)	19.7
CGGUGUAGAGGAUAUACGUGAAUAUAAGAACAUAAUAAUUAACAUGAGGAUCACCCAUGUAGAAGGCUAUAGCG [JR_Ex2_Sub081] (Eterna round: R97, puzzle: Exclusion 2)	16.7
ACAAGACAUGAGGAUCACCCAUGUGGUCGGAUGUCAAAGACCGAGGAUAUCAGCGACUGCGCCGCUGAGAAGGCGGAUGGUGCU [Telaed] (Eterna round: R96, puzzle: Exclusion NG 3)	652
GAAAAGCGAGGAUAUACUUGCAGUGUACCUCGGGUGAUCUCACUUGAGGAUCACCCAAGUAGAAGGCGCGAGGG [Quletibe] (Eterna round: R97, puzzle: Exclusion 2)	45.2
UGAGUGCUGCGAGGAUAUACAUGAGGAUCACCCAUGUGGUCCUGUGAGGCAAAGCCUCACAGGAUGUAGAAGGCGCAGUACUCU [Mat - Exclusion NG 2 - Mod of JL - D45] (Eterna round: R96, puzzle: Exclusion NG 2)	22.5
